src = the RNAGym collection of RNA variant scans (doi:10.7554/elife.90254)

B1: LINE1-full (parent)
chain: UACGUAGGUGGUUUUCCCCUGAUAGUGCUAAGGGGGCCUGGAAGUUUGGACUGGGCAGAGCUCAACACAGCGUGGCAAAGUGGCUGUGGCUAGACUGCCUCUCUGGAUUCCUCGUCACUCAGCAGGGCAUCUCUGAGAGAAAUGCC

Variants of: B1
Experiment: self-cleavage, relative activity (ratio to wild type); higher = more cleavage; in vitro, sequencing; the parent is a self-cleaving ribozyme
Property Label: self-cleavage

- Sequence Change: "U87C U91G"
  Result: 0.08
- Sequence Change: "A69G A136C"
  Result: 0.49
- Sequence Change: "U9C A24G"
  Result: 1.04
- Sequence Change: "U14A G137A"
  Result: 0.77
- Sequence Change: "A64G U73A"
  Result: 0.19
- Sequence Change: "U5G A64G"
  Result: 0.23
- Sequence Change: "U104A U134C"
  Result: 1.53
- Sequence Change: "U62C A136C"
  Result: 0.1
- Sequence Change: "G106U A117U"
  Result: 1.26
- Sequence Change: "A42G G75A"
  Result: 1.14
- Sequence Change: "C111U U130A"
  Result: 0.93
- Sequence Change: "A59U U81A"
  Result: 1.53
- Sequence Change: "U13A A136U"
  Result: 1.22
- Sequence Change: "U102A A142G"
  Result: 1.9
- Sequence Change: "C56U C128U"
  Result: 0.22
- Sequence Change: "A22G A69C"
  Result: 0
- Sequence Change: "G27C U100C"
  Result: 1.13
- Sequence Change: "G58A U132C"
  Result: 0.05
- Sequence Change: "G4A U104C"
  Result: 0.83
- Sequence Change: "C71A U132C"
  Result: 0.15
- Sequence Change: "U26A A42U"
  Result: 1.03
- Sequence Change: "U12C U46A"
  Result: 1.24
- Sequence Change: "U15C A43G"
  Result: 1.4
- Sequence Change: "U52C G127A"
  Result: 0.93
- Sequence Change: "U23A A65U"
  Result: 0.53
- Sequence Change: "G36C U143A"
  Result: 0.7
- Sequence Change: "U9G U47C"
  Result: 0.54
- Sequence Change: "U20A A67G"
  Result: 0.45
- Sequence Change: "U14C A124U"
  Result: 1.25
- Sequence Change: "U9C U81C"
  Result: 1.21
- Sequence Change: "C28U A138U"
  Result: 0.9
- Sequence Change: "U14A U112C"
  Result: 0.79
- Sequence Change: "C71A G83U"
  Result: 0.58
- Sequence Change: "U12C A138U"
  Result: 1.21
- Sequence Change: "U52C A78G"
  Result: 1
- Sequence Change: "A57C A65G"
  Result: 0
- Sequence Change: "A22G A129U"
  Result: 0.67
- Sequence Change: "C3U A67C"
  Result: 0.12
- Sequence Change: "U46G U143C"
  Result: 1.43
- Sequence Change: "U29C U46C"
  Result: 1.36
- Sequence Change: "A2G G75A"
  Result: 0.7
- Sequence Change: "U46A A107C"
  Result: 1.99
- Sequence Change: "U23A U81A"
  Result: 1.7
- Sequence Change: "U100C U119A"
  Result: 2.09
- Sequence Change: "G7A U108C"
  Result: 1.57
- Sequence Change: "G72U U134C"
  Result: 1.24
